Each recorded value in this set is attributed to ChEMBL document CHEMBL2321840.

experiment: Equilibrium solubility of the compound in Britton-Robinson buffer at pH 7 after 24 hrs by HPLC analysis; format: physicochemical
readout kind: solubility thermodynamic at 24 h (µg/mL)

* COc1cccc2c1c(NS(=O)(=O)c1ccc(Cl)s1)nn2Cc1cccc(CNC(=O)C(C)(C)O)c1 | 10

---

target: C-X-C chemokine receptor type 1 (Homo sapiens, UniProt P25024); assay: Antagonist activity at CXCR1 receptor (unknown origin) by [35S]GTPgammaS binding assay
Sequence (P25024 whole entry): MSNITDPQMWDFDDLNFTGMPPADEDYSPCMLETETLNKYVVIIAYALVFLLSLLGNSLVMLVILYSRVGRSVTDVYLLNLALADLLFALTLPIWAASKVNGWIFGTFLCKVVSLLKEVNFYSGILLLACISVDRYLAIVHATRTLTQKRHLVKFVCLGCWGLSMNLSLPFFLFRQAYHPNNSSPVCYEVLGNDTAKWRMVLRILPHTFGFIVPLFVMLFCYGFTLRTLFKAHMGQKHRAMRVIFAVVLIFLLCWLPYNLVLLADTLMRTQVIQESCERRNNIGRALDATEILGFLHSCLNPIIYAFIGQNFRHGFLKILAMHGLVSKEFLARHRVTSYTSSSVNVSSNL
pIC50: −log10 of the molar value.
readout kind: pIC50

- COc1cccc2c1c(NS(=O)(=O)c1ccc(Cl)s1)nn2Cc1cccc(CNC(=O)C(C)(C)O)c1: < 5.00
